B1: Caulobacter ParB omega fusion; a variant is named by its letters at X, in order, B8GW30 (parent)
chain: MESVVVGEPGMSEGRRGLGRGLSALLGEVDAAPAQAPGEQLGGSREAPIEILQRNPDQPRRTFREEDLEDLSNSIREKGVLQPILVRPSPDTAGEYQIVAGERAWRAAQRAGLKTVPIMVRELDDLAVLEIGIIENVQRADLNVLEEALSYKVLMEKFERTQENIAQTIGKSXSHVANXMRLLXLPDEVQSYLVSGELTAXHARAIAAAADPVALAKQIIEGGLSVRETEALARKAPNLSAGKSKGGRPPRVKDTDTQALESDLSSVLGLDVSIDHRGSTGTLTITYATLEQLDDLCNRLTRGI

# Variants of: B1
# EXPERIMENT: one-hybrid fitness for binding NBS DNA (the Noc-binding site; scaled: cognate 1, non-cognate 0); higher = stronger binding
# CONDITION_PARAMETERS: with NBS DNA site
Over roughly 81,000 sequences, “one-hybrid fitness for binding NBS DNA” has its median near -0.1; the highest 2% begin near 0.36. This excerpt belongs to a sample that is enriched for the highest values.
REPORTED_METRIC: one-hybrid fitness for binding NBS DNA

ALTERATION: WSSA
one-hybrid fitness for binding NBS DNA: ≤ 0.2
--
ALTERATION: AVGK
one-hybrid fitness for binding NBS DNA: ≤ 0.2
--
ALTERATION: QQAD
one-hybrid fitness for binding NBS DNA: ≤ 0.2
--
ALTERATION: YQLE
one-hybrid fitness for binding NBS DNA: ≤ 0.2
--
ALTERATION: TGNW
one-hybrid fitness for binding NBS DNA: ≤ 0.2

// field: one-hybrid fitness for binding NBS DNA; key: MLLV ; value = ≤ 0.2

// field: one-hybrid fitness for binding NBS DNA; key: QKDA ; value = ≤ 0.2

// field: one-hybrid fitness for binding NBS DNA; key: YDNR ; value = ≤ 0.2

// field: one-hybrid fitness for binding NBS DNA; key: PQLT ; value = ≤ 0.2

// field: one-hybrid fitness for binding NBS DNA; key: QCPH ; value = ≤ 0.2

// field: one-hybrid fitness for binding NBS DNA; key: CLGT ; value = ≤ 0.2

// field: one-hybrid fitness for binding NBS DNA; key: QEHI ; value = ≤ 0.2

// field: one-hybrid fitness for binding NBS DNA; key: RKMM ; value = ≤ 0.2

// field: one-hybrid fitness for binding NBS DNA; key: FVKY ; value = ≤ 0.2

// field: one-hybrid fitness for binding NBS DNA; key: MIEP ; value = ≤ 0.2

// field: one-hybrid fitness for binding NBS DNA; key: KSLV ; value = ≤ 0.2

// field: one-hybrid fitness for binding NBS DNA; key: AKGR ; value = ≤ 0.2

// field: one-hybrid fitness for binding NBS DNA; key: LRFA ; value = ≤ 0.2

// field: one-hybrid fitness for binding NBS DNA; key: QTTA ; value = 0.399

// field: one-hybrid fitness for binding NBS DNA; key: RESS ; value = ≤ 0.2
